tested on: Fibroblast; test: Multiplex assay against human fibroblast; type: toxicity, cell-based; conditions: 24 h, 10 µM, compound concentration 10 uM, replicate 2
Known Total Cell Count of a selection of molecules

Please review the entries below; each comes with its answer.
COc1cc2ncnc(Nc3ccc(F)c(Cl)c3)c2cc1NC(=O)/C=C/CN1CCCCC1 [DACOMITINIB ANHYDROUS] ... 91
COc1cccc2cc(-c3nc([C@H]4CC[C@H](C(=O)O)CC4)n4ncnc(N)c34)[nH]c12 [OSI-027] ... 75
CCn1c(=O)c(-c2ccc(-c3cncs3)cc2Cl)cc2cnc(Nc3ccc(N4CCN(C)CC4)cc3)nc21 ... 83

# return Total Cell Count for O=C(Nc1ccc(-c2ccnc(Nc3ccc(N4CCOCC4)cc3)n2)cc1)[C@@H]1CCCN1 , test system: Fibroblast
72

# return Total Cell Count for Cc1cc(C)c(S(=O)(=O)N(Cc2ccc(-c3cccc(S(C)(=O)=O)c3)cc2)Cc2ccc(C(F)(F)F)o2)c(C)c1 , test system: Fibroblast
109

# return Total Cell Count for COc1ccc(S(=O)(=O)N(CCO)c2ccccc2CN(C)C/C=C/c2ccc(Cl)cc2)cc1.O=P(O)(O)O , test system: Fibroblast
95

# return Total Cell Count for CCCS(=O)(=O)c1nc(NC2CC2)cc(-c2ccc3c(ccn3C3CC(C)(C)NC(C)(C)C3)c2)n1 , test system: Fibroblast
104

# return Total Cell Count for CNc1cc(Oc2cc(C(=O)Nc3cc(N4CCN(C)CC4)cc(C(F)(F)F)c3)ccc2C)ncn1 , test system: Fibroblast
76

====

test system: Fibroblast; assay: Multiplex assay against human fibroblast; assay type: toxicity, cell-based; conditions: 48 h, 10 µM, compound concentration 10 uM, replicate 2
MEASURED_PROPERTY: Population Tubulin-Different-Phenotype (%)
Answer with a number only, understood to be in %.

Please review the entries below; each comes with its answer.
CN1CCN(C(=O)C(C)(C)c2ccc(C(=O)Nc3cn4cc(-c5ccncc5)ccc4n3)cc2)CC1 ... 65
Cl.Oc1ccc2c3c1O[C@H]1c4[nH]c5c(c4C[C@@]4(O)[C@@H](C2)N(CC2CC2)CC[C@]314)C[C@@]1(O)[C@H]2Cc3ccc(O)c4c3[C@@]1(CCN2CC1CC1)[C@H]5O4 ... 41
Cl.O=c1c2cccn2c2ccccc2n1CCCN1CCC(c2ccc(Cl)cc2)CC1 ... 72
Cc1cc(C)c(S(=O)(=O)N(Cc2ccc(-c3cccc(S(C)(=O)=O)c3)cc2)Cc2ccc(C(F)(F)F)o2)c(C)c1 ... 22
CCCn1c(=O)c2[nH]c(-c3cnn(Cc4cccc(C(F)(F)F)c4)c3)nc2n(CC)c1=O ... 63

Look up and state reported Population Tubulin-Different-Phenotype (%) for COc1cc(N2CCN(C)CC2)ccc1Nc1ncc2c(n1)N(C)c1ccccc1C(=O)N2C
62

Look up and state reported Population Tubulin-Different-Phenotype (%) for S=C(NCCCc1c[nH]cn1)NCCCN(Cc1ccc(Cl)c(Cl)c1)c1ccc(Br)cn1
100

Look up and state reported Population Tubulin-Different-Phenotype (%) for CCN1CCN(Cc2ccc(Nc3ncc(F)c(-c4cc(F)c5nc(C)n(C(C)C)c5c4)n3)nc2)CC1.CS(=O)(=O)O
52

Look up and state reported Population Tubulin-Different-Phenotype (%) for Cc1ccc(C(=O)Nc2cccc(C(F)(F)F)c2)cc1Nc1nc(-c2cccnc2)nc2c1cnn2C
95

Look up and state reported Population Tubulin-Different-Phenotype (%) for O=C(Nc1ccc(Cl)cc1)Nc1cccc(-c2cccc(N3CCCC3)n2)c1
36

Look up and state reported Population Tubulin-Different-Phenotype (%) for Cl.O=C(c1ccc(Nc2nccc(-c3cc4ccccc4s3)n2)cc1)N1CCC(N2CCCC2)CC1
62

Look up and state reported Population Tubulin-Different-Phenotype (%) for CCn1c(=O)c(-c2ccc(-c3cncs3)cc2Cl)cc2cnc(Nc3ccc(N4CCN(C)CC4)cc3)nc21
52

Look up and state reported Population Tubulin-Different-Phenotype (%) for CCOc1cc2ncc(C#N)c(Nc3ccc(OCc4ccccn4)c(Cl)c3)c2cc1NC(=O)/C=C/CN(C)C
18
